Assay: NCI Yeast Anticancer Drug Screen. Data for the sgs1 mgt1 strain (AID 161);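 note: 0% = growth of cultures given vehicle only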
Conditions: S. cerevisiae sgs1 mgt1 strain, at 50.0 µM (retest, dose inferred, filed as 5.0), active compounds read high
About 79,000 compounds went through this panel and 15% of them were active in at least one assay; those are over-represented in the sample as a whole.
Listed compounds paired with reported growth inhibition
Express it in %; write the number only.

Here are 3 compounds together with their reported answers.
C1CCC2CC3(CCNCC3)CCC2C1 (stereo not given)	79
CC(C)OP(=O)(OC(C)C)/C(I)=N/Nc1ccc([N+](=O)[O-])cc1	37
CC1=C(C)C(=O)C(C(C)(C)CC(=O)n2cc(F)c(=O)[nH]c2=O)=C(C)C1=O	95

Param item = Cc1[nH]n(C(N)=S)c(=O)c1N=Nc1ccc([N+](=O)[O-])cc1 ; retrieve measured growth inhibition. 66

Check CCOC(=O)C(=Cn1c(=S)[nH]c2ccc([N+](=O)[O-])cc21)C(=O)OCC too. 41

Check O=C1/C(=C/c2cccc([N+](=O)[O-])c2)Sc2scc(-c3ccc([N+](=O)[O-])cc3)[n+]21 too. 97

Check NC(CSC1(c2ccc(Cl)cc2)c2ccccc2-c2ccccc21)C(=O)O (stereo not given) too. 22

Check Cc1cc(N/N=C(\c2ccccc2)c2ccccn2)nc2ccccc12 too. 83

Check O=C(Nc1ccc(Cl)cc1)c1cccc([N+](=O)[O-])c1O too. 11

Check O=C1C(C(O)(C(F)(F)Cl)C(F)(F)Cl)CCCC1C(O)(C(F)(F)Cl)C(F)(F)Cl (stereo not given) too. 99

---

Assay: NCI Yeast Anticancer Drug Screen. Data for the mec2-1 strain (AID 157)
Conditions: S. cerevisiae mec2-1 strain, at 5.0 µM (retest, dose inferred, filed as 0.5)
Method: Growth inhibition of yeast strains with defined genetic alterations is measured as a screen for potential anti-cancer activity. Selected strains with alterations in DNA damage repair or cell cycle control were exposed to compounds and growth inhibition was measured relative to vehicle treated controls. The strain used in this assay is mec2-1
This is part of a sample that, as a whole, favours compounds with a hit. Of some 79,000 tested, about 15% had one in any assay. Active and inactive are the calls of the source. No stated cut-off is given here; in the data, active means growth inhibition above about 70%; inactive means the rest.
The reply should be one of these categories: active, inactive

Answered cases to consult:
O=C1OC(=O)c2cccc3cccc1c23	inactive
CCC(C)(C)C(=O)OCC(=O)c1ccc(-c2ccccc2)cc1	inactive

Name the outcome recorded for Cc1nn(C(=O)c2ccccc2O)c2c1C(c1ccc3ccccc3c1O)SC(N)=N2 (stereo unspecified) in the assay. inactive

Check CC(=O)OC1=CC2(OC(C)=O)CC(C)(C)C1C1C(=O)C=CC(=O)C12 (stereo unspecified) too. inactive

Check Brc1ccc(N=NN2CCCC2)cc1 too. inactive

Check Cc1ccc2c(C3Cc4ccccc4N3C(=O)/C=C\C(=O)O)c(C)[nH]c2c1 (stereo unspecified) too. inactive

---

Listed molecules paired with reported growth inhibition
Experiment: NCI Yeast Anticancer Drug Screen. Data for the mlh1 rad18 strain (AID 175)
Conditions: S. cerevisiae mlh1 rad18 strain growth inhibition; at 50.0 µM (retest, dose inferred, filed as 5.0); active compounds read high
Compounds without any hit were thinned out: in the full panel of roughly 79,000, 15% have a hit.
Express it in %; write the number only.

Cc1c2ccccc2c(CCl)c2ccc3ccccc3c12	99
CCC[CH2][Sn]([CH2]CCC)([O]C(=O)c1cc(F)ccc1F)[O][Sn]([CH2]CCC)([CH2]CCC)[O]C(=O)c1cc(F)ccc1F	96
Cc1cc(C2CCCCC2)n(O)c(=O)c1	99
Cc1cccnc1NC(=S)Nc1ccccc1Cl	99
Oc1cccc(-c2nc(-c3ccccc3)c(-c3ccccc3)[nH]2)c1	43
C=C(CN(C)C)C(=O)c1ccccc1C	97
Cc1nc2c(nc1C)C(=O)C1=C(C2=O)C2C=CC1CC2	93
O=C(Nc1cccc(C(F)(F)F)c1)C(Cl)=C(Cl)Cl	99
COc1cc2cnc(-c3ccccc3)cc2cc1OC	86
CSc1nc(C)cc(SCc2ccc(Cl)cc2Cl)n1	21

Param item = CS/C(=N\C(=S)N(C)C)N(c1ccccc1)c1nc(=[N+](C)C)ss1 ; retrieve measured growth inhibition. 98
